Origin of values: patent US20220403048A1

# Lookup of reported kon keyed by entry
- assayed system: T1, biotinylated recombinant cynomolgus monkey trimeric ARG2 enzyme (Avi-cynoARG2-His10) (cynomolgus monkey, UniProt P78540 23-354 (human entry), biotinylated)
- T1 construct: also called cynomolgus ARG2
- T1 chain: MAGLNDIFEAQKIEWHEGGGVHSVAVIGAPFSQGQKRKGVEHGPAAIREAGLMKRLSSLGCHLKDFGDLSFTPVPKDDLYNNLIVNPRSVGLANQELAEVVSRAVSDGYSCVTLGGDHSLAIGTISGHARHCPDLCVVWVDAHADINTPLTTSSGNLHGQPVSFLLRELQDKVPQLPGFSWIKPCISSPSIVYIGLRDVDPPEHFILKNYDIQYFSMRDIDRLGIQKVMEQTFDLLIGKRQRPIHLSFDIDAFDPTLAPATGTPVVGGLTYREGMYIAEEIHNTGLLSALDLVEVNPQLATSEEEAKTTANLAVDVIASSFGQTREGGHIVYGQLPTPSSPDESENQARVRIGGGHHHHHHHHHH
- assay procedure: BLI (OctetRED) extended assay, biotinylated cyno ARG2 on streptavidin, Fab as analyte, 1:1 fit
Report as a plain number; the unit M⁻¹ s⁻¹ is understood.

C0021158 Fab (Fab, V domains shown, Human Fab) VH: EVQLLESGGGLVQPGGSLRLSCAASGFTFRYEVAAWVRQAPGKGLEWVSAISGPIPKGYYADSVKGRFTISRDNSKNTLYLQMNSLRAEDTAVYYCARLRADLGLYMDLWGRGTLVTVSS VL: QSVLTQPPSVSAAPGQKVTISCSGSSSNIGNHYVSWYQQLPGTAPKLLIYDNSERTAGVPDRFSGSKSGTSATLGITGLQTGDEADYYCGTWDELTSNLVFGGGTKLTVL
429000
C0021177 Fab (Fab, V domains shown, Human Fab) VH: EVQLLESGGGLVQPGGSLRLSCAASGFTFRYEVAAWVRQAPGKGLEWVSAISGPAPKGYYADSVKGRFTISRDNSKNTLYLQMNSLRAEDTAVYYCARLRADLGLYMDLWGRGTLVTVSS VL: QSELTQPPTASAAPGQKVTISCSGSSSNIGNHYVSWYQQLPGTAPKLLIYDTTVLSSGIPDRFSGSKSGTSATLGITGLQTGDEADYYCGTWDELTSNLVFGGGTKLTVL
414000
C0021180 Fab (Fab, V domains shown, Human Fab) VH: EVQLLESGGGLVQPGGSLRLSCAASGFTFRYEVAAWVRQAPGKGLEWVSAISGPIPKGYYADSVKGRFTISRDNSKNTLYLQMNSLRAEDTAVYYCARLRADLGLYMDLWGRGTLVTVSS VL: QSVLTQPPTVSAAPGRKVTISCSGSSSNIGDHHVSWYQQLPGAAPKLLIYDTDHMASGIPDRFSGSRSGTSATLGITGLQTGDEADYYCGTWDSSLSALVFGGGTKLTVL
381000

# input for lookup
Query: Give the measured kon of C0021181 Fab (Fab, V domains shown, Human Fab) VH: EVQLLESGGGLVRPGGSLRLSCAASEFTFRYDYHVWVRQAPGKGLEWVSAISGSGGSTYYADSVKSRFTISRDNSKNTLYLQMNSLRAEDTAVYYCARLRADLGLYMDLWGRGTLVTVSS VL: QSVLTQPPSVSAAPGQKVAVSCSGSSSNIGSHYVSWYQQLPGTAPKLLIYDNSERTSGIPDRFSGSKSGTSATLGITGLQTGDEADYYCGTWDELTSNLVFGGGTRLTVL .
Response: 257000
